Overview of reported pest or weed control at 280 g/ha across a group of compounds:
System: Amaranthus rudis (AMATA), tall water hemp
Assay Protocol: Postemergence herbicide evaluation, growth of Amaranthus rudis (AMATA)
Assay type: in vivo
Condition Info: Amaranthus tuberculatus, post-emergence, 336 h, 280 g ae/ha, 14 DAA; read-out: Ave. AMATA, percent reduction in plant size relative to the untreated control
Observable: pest or weed control at 280 g/ha (%)

{"Compound": "Cc1nccc(NC(=O)COc2ccc(Cl)cc2Cl)c1C [Compound D26]", "Observable": "pest or weed control at 280 g/ha", "Data Value": 88.5}
{"Compound": "O=C(COc1ccc(Cl)cc1Cl)Nc1c(Cl)c(F)nc(F)c1Cl [Compound D25]", "Observable": "pest or weed control at 280 g/ha", "Data Value": 15}
{"Compound": "C/C(=N\\OC(=O)COc1ccc(Cl)cc1Cl)c1ccccc1Cl [Compound A24]", "Observable": "pest or weed control at 280 g/ha", "Data Value": 92.5}
{"Compound": "O=C(COc1ccc(Cl)cc1Cl)Oc1cccnn1 [Compound E2]", "Observable": "pest or weed control at 280 g/ha", "Data Value": 80}
{"Compound": "O=C(COc1ccc(Cl)cc1Cl)O/N=C1\\CCCc2ccccc21 [Compound A25]", "Observable": "pest or weed control at 280 g/ha", "Data Value": 80}
{"Compound": "O=C(COc1ccc(Cl)cc1Cl)O/N=C/c1ccccc1 [Compound A2]", "Observable": "pest or weed control at 280 g/ha", "Data Value": 70}
{"Compound": "O=C(COc1ccc(Cl)cc1Cl)O/N=C/c1cccnc1 [Compound A29]", "Observable": "pest or weed control at 280 g/ha", "Data Value": 90}
{"Compound": "O=C(COc1ccc(Cl)cc1Cl)Nc1nccs1 [Compound D24]", "Observable": "pest or weed control at 280 g/ha", "Data Value": 87.5}
{"Compound": "C[N+](C)(C)CCOC(=O)COc1ccc(Cl)cc1Cl.[Cl-] [Compound E3]", "Observable": "pest or weed control at 280 g/ha", "Data Value": 78}
{"Compound": "C/C(=N\\OC(=O)COc1ccc(Cl)cc1Cl)c1ccccc1 [Compound A1]", "Observable": "pest or weed control at 280 g/ha", "Data Value": 85}
{"Compound": "O=C(COc1ccc(Cl)cc1Cl)Nc1ccon1 [Compound D2]", "Observable": "pest or weed control at 280 g/ha", "Data Value": 85}
{"Compound": "O=C(COc1ccc(Cl)cc1Cl)O/N=C/c1ccccn1 [Compound A32]", "Observable": "pest or weed control at 280 g/ha", "Data Value": 96}
{"Compound": "CC(C)CONC(=O)COc1ccc(Cl)cc1Cl [Compound D22]", "Observable": "pest or weed control at 280 g/ha", "Data Value": 92.5}
{"Compound": "N/C(=N\\OC(=O)COc1ccc(Cl)cc1Cl)c1cccnc1 [Compound A4]", "Observable": "pest or weed control at 280 g/ha", "Data Value": 75}
{"Compound": "C/C(=N\\OC(=O)COc1ccc(Cl)cc1Cl)c1cccnc1 [Compound A26]", "Observable": "pest or weed control at 280 g/ha", "Data Value": 85}
{"Compound": "O=C(COc1ccc(Cl)cc1Cl)Oc1cncnc1 [Compound E14]", "Observable": "pest or weed control at 280 g/ha", "Data Value": 90}
{"Compound": "C/C(=N\\OC(=O)COc1ccc(Cl)cc1Cl)c1ccncc1 [Compound A27]", "Observable": "pest or weed control at 280 g/ha", "Data Value": 90}
{"Compound": "COc1ncc(OC(=O)COc2ccc(Cl)cc2Cl)cn1 [Compound E12]", "Observable": "pest or weed control at 280 g/ha", "Data Value": 80}
{"Compound": "O=C(COc1ccc(Cl)cc1Cl)Oc1ncc(Cl)cn1 [Compound E13]", "Observable": "pest or weed control at 280 g/ha", "Data Value": 82.5}
